Tested on: 2,3-epoxysqualene-lanosterol cyclase
Assay overview: In vivo effect in the rat after oral administration: 2,3-epoxysqualene level in plasma
Parameters: species or system rat (male Wistar)
Condition parameters: 0.1 mg/kg oral, 5 hours after administration
# note: exactly 0.8 µg/mL is not below, so it is -1; use 1 for 2,3-Epoxysqualene concentration in plasma (rat) strictly under it

Below, 3 compounds whose answers are already recorded.
O=C(c1ccc(Cl)cc1)N1CCC(=Cc2ccc(C3=NCCO3)cc2F)CC1 ... 1
O=C(c1ccc(Cl)cc1)N1CCC(=Cc2ccc(C3=NCCO3)cc2)CC1 ... 1
O=C(c1ccc(C(F)(F)F)cc1)N1CCC(Cc2ccc(C3=NCCO3)cc2)CC1 ... -1

Hello, is 2,3-Epoxysqualene concentration in plasma (rat) of the following compound strictly smaller than 0.8 µg/mL? O=C(c1ccc(C(F)(F)F)cc1)N1CCC(=Cc2ccc(C3=NCCO3)cc2)CC1
-1

is_below(2,3-Epoxysqualene concentration in plasma (rat), 0.8 µg/mL) for O=C(c1ccc(Cl)cc1)N1CCC(=Cc2ccc(C3=NCCCO3)cc2)CC1 ?
1
